System: LNCaP
Assay: Inhibition of proliferation / cytotoxicity, LNCaP
Format: cell-based
Conditions: LNCaP prostate cancer cell line; read-out: Tumor Cell Line (IC50, nM) LNCaP
One threshold, 0.8 nM, splits the recorded IC50 values: lower ones are 1 (yes), equal or higher ones are 0 (no).

The following compounds have reported results that may help.
Incoming: Does the reported IC50 of CCC(C=CC1OC(=O)C=CC1C)=CC(C)CC=CC(C)=CC(C)C(=O)C(C)C(O)C(C)CC(C)=CC(=O)NCC(=O)O (stereo not shown) stay below 0.8 nM?
Outgoing: 0 (no)

Incoming: Determine if CCC(C=CC1OC(=O)C=CC1C)=CC(C)CC=CC(C)=CC(C)C(=O)C(C)C(O)C(C)CC(C)=CC(=O)NCCc1cccnc1 (stereo not shown) shows IC50 strictly lower than 0.8 nM.
Outgoing: 1 (yes)

Incoming: For this compound, is IC50 lower than 0.8 nM? CCC(C=CC1OC(=O)C=CC1C)=CC(C)CC=CC(C)=CC(C)C(=O)C(C)C(O)C(C)CC(C)=CC(=O)NCCNC (stereo not shown)
Outgoing: 0 (no)

Incoming: Bench note: check whether CCC(C=CC1OC(=O)C=CC1C)=CC(C)CC=CC(C)=CC(C)C(=O)C(C)C(O)C(C)CC(C)=CC(=O)NCCN (stereo not shown) shows IC50 below 0.8 nM
Outgoing: 0 (no)

Incoming: State whether 0.8 nM exceeds IC50 recorded for CCC(C=CC1OC(=O)C=CC1C)=CC(C)CC=CC(C)=CC(C)C(=O)C(C)C(O)C(C)CC(C)=CC(=O)NCCCN1CCOCC1 (stereo not shown) .
Outgoing: 1 (yes)

Incoming: Does CCC(C=CC1OC(=O)C=CC1C)=CC(C)CC=CC(C)=CC(C)C(=O)C(C)C(O)C(C)CC(C)=CC(=O)NCCCCCNC(=O)COc1ccc(C2=NC(=Cc3ccc(-c4cccs4)n3B(F)F)C=C2)cc1 (stereo not shown) have IC50 strictly under 0.8 nM?
Outgoing: 0 (no)

New cases:
Incoming: Does the reported IC50 of the following compound sit strictly below 0.8 nM? CCC(C=CC1OC(=O)C=CC1C)=CC(C)CC=CC(C)=CC(C)C(=O)C(C)C(O)C(C)CC(C)=CC(=O)NCCNC(=O)CCC1=NC(=Cc2c(C)cc(C)n2B(F)F)C=C1 (stereo not shown)
Outgoing: 0 (no)

Incoming: Given the entry CCC(C=CC1OC(=O)C=CC1C)=CC(C)CC=CC(C)=CC(C)C(=O)C(C)C(O)C(C)CC(C)=CC(=O)NCCN(C)C (stereo not shown) , would its reported IC50 be below 0.8 nM?
Outgoing: 1 (yes)
